Target: Scavenger receptor class B member 1 (Mus musculus) (UniProt Q61009)
Sequence (Q61009 whole entry, looked up): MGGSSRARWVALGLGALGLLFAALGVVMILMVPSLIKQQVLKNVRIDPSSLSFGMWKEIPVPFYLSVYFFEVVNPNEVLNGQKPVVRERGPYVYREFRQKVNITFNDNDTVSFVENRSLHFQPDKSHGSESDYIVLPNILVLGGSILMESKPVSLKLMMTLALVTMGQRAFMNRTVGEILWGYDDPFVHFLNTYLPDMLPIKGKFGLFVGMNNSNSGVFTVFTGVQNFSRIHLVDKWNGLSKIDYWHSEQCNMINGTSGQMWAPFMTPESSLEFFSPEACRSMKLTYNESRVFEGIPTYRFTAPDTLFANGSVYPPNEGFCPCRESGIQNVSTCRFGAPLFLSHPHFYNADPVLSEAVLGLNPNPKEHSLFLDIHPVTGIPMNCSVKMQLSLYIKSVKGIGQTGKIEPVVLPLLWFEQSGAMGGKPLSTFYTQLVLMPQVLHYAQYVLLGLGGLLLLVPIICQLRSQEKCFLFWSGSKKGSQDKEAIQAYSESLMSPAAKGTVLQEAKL
Assay: mouse SR-BI DiI-HDL uptake blockers – ldlA[mSR-BI] cells, fluorescence, single point, primary screen (AID 488896)
Conditions: ldlA[mSR-BI] CHO cells, 3 h, at 12.5 µM
Out of some 320,000 compounds screened, about 3,100 (0.97%) were called active.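 How the source made its calls: active means mean replicate inhibition of at least 70% and a set share of replicates each scoring 70 or more; inconclusive means meets just one of the two criteria; inactive means fails both criteria.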 Shown is part of a subset that was picked to be rich in actives.
Entry note: the call must match one of Y = active, N = inactive

Illustrative cases are given below, each with its answer.
Kindly provide the recorded test outcome for the following molecule: COc1ccc(OC)c(-c2csc(NC(=O)COC(=O)C3CC3)n2)c1 N

In this assay, the call recorded for c1ccc(-c2c[nH]c(-c3ccccc3)c2)cc1 was what? N

Further cases:
# fetch the recorded call for O=C(c1cccnc1)N(Cc1ccccc1)C(=O)c1cccnc1 here N

Name the outcome recorded for O=C(NCC1CCCCC1)NCC1CCCCC1 in the assay. N

Outcome logged for O=C(CCCCCCCC(=O)N1CCCCC1)N1CCCCC1 in this assay: N

Hi team, can someone confirm the assay call for O=[N+]([O-])c1cc2ccccc2nc1-c1ccccc1 ? N

Each molecule tested received a call. Report the one for COc1cccc(C=CC(=O)C=CC=Cc2ccccc2)c1 . N

Record lookup: outcome of this test for CN1CCOC1c1ccc(C2OCCN2C)cc1 (configuration not stated) ? N

Query: recorded result category for CC(C)CC(=O)N1CCN(Cc2cccc(Cl)c2)CC1 in this test N
